Biological target: Macaca fascicularis IL-36R extracellular domain expressed with a C-terminal myc-myc-hexahistidine tag (Macaca fascicularis)
Assay: SPR Biacore T200, mAb captured by anti-hFc, 37C, PBS-T pH 7.4
test-readout: 100 nM mfIL-36R-MMH Bound (RU)
The figure you give is taken to be in RU; do not add the unit.

Please review the following examples before continuing.
H4H14758P (antibody, human IgG4 S228P, kappa, V domains shown) VH: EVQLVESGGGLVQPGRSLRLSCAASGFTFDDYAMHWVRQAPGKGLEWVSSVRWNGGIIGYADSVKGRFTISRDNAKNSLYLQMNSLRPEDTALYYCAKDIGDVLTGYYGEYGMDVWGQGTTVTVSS VL: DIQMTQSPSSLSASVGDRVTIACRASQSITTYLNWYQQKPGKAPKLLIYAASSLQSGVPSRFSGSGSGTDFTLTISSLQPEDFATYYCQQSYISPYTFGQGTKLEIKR : 0
H4H14709P (antibody, human IgG4 S228P, kappa, V domains shown) VH: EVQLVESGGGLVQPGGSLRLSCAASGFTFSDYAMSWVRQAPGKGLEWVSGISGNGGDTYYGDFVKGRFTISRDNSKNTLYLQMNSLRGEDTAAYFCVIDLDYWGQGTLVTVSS VL: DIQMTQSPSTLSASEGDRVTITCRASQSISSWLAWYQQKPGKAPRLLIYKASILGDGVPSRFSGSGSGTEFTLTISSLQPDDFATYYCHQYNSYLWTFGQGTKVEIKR : 92

Now examine the next entry.
Indicate its recorded 100 nM mfIL-36R-MMH Bound (RU); the binder in question is H4H14731P (antibody, human IgG4 S228P, kappa, V domains shown) VH: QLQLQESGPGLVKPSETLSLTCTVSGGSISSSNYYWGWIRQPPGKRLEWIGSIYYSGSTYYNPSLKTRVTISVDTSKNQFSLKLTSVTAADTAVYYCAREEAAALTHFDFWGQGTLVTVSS VL: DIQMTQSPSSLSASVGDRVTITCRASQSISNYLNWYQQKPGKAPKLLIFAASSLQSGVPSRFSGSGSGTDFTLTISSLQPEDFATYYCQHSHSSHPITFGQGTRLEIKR
43
